Cited source for all entries: paper PMC10529594

# Tested on: T. cruzi Tulahuen C4 intracellular amastigotes
# protocol.details: β-D-galactosidase transgenic T. cruzi assay (intracellular amastigotes in L6 cells, CPRG)
# Type: cell-based
# measurement.conditions: Trypanosoma cruzi, TULAHUEN, L6; T. cruzi amastigotes, 96-hour treatment, 0.0488281 µM; read-out: Growth inhibition (%) Average
Could you please report measured inhibition at 0.0488281 µM for the items listed next?
All answers are understood in %, so give the number only.

query: Suppose we examine the compound C/C1=C\[C@H](C)CCC(=O)/C(C)=C/[C@H](C)C[C@@H](C)CC[C@@H]([C@@H](C)C(=O)O)OC(=O)[C@@H](C)C1 [Strasseriolide A, strasseriolide A] ; what inhibition at 0.0488281 µM value has been reported?
result: 6.89

query: Which inhibition at 0.0488281 µM is reported for this compound? C/C1=C\[C@H](C)[C@@H](O)C[C@@H](O)/C(C)=C/[C@H](C)C[C@@H](C)CC[C@@H]([C@@H](C)C(=O)O)OC(=O)[C@@H](C)C1 [Strasseriolide D, strasseriolide D]
result: 2.75

query: Look up inhibition at 0.0488281 µM for this compound: C/C1=C\[C@H](C)C(=O)C[C@@H](O)/C(C)=C/[C@H](C)C[C@@H](C)CC[C@@H]([C@@H](C)C(=O)O)OC(=O)[C@@H](C)C1 [Strasseriolide C, strasseriolide C]
result: 5.95

query: Tell me the measured inhibition at 0.0488281 µM of C/C1=C\[C@H](C)CC[C@@H](O)/C(C)=C/[C@H](C)C[C@@H](C)CC[C@@H]([C@@H](C)C(=O)O)OC(=O)[C@@H](C)C1 [Strasseriolide B, strasseriolide B] , please.
result: 6.79

query: I would be grateful if you could share the reported inhibition at 0.0488281 µM for `O=C(Cn1ccnc1[N+](=O)[O-])NCc1ccccc1` .
result: 12.4

###

Give measured EC50 for each item. Keep answers brief.
# Tested on: intracellular T. cruzi amastigotes
# protocol.details: Rate of kill, intracellular T. cruzi amastigotes (CPRG, 96-well)
# Type: cell-based, Trypanosoma cruzi
# measurement.conditions: Trypanosoma cruzi; Amastigotes, 24 h
Report only the number, with the unit µM understood.

query: Quick one: EC50 for `CC[C@@H]([C@H](C)O)n1ncn(-c2ccc(N3CCN(c4ccc(OC[C@@H]5CO[C@@](Cn6cncn6)(c6ccc(F)cc6F)C5)cc4)CC3)cc2)c1=O` ?
result: 5.41

query: What value of measured EC50 is listed for C/C1=C\[C@H](C)C(=O)C[C@@H](O)/C(C)=C/[C@H](C)C[C@@H](C)CC[C@@H]([C@@H](C)C(=O)O)OC(=O)[C@@H](C)C1 [Strasseriolide C, strasseriolide C] ?
result: 10.3

query: // query EC50 value for entry `O=C(Cn1ccnc1[N+](=O)[O-])NCc1ccccc1`
result: 2.87

query: Using the record for CC1CS(=O)(=O)CCN1/N=C/c1ccc([N+](=O)[O-])o1 (stereo not shown) , report its EC50.
result: 0.3

###

# System: T. cruzi Tulahuen C4 intracellular amastigotes
# protocol.details: β-D-galactosidase transgenic T. cruzi assay (intracellular amastigotes in L6 cells, CPRG)
# Format: cell-based
# measurement.conditions: Trypanosoma cruzi, TULAHUEN, L6; T. cruzi amastigotes, 96-hour treatment, 12.5 µM; read-out: Growth inhibition (%) Average
# Experimental: The Trypanosoma cruzi Tulahuen strain used is a genetically modified strain that expresses the Escherichia coli β-galactosidase gene, lacZ [31]. It was kindly supplied by Marcel Kaiser (Swiss Tropical and Public Health Institute). The T. cruzi Tulahuen C4 strain was cultured in RPMI-1640 supplemented with 10% inactivated FBS (iFBS), 1.7 mM L-glutamine, 100 U/mL penicillin, and 100 U/mL streptomycin at 37°C and 5% CO2. […]
Answer each item with its documented inhibition at 12.5 µM.
Please give a number only; it is taken to be in %.

query: For T. cruzi Tulahuen C4 intracellular amastigotes, provide inhibition at 12.5 µM of C/C1=C\[C@H](C)[C@@H](O)C[C@@H](O)/C(C)=C/[C@H](C)C[C@@H](C)CC[C@@H]([C@@H](C)C(=O)O)OC(=O)[C@@H](C)C1 [Strasseriolide D, strasseriolide D] please.
result: 100

query: Look up inhibition at 12.5 µM with T. cruzi Tulahuen C4 intracellular amastigotes for this compound: `O=C(Cn1ccnc1[N+](=O)[O-])NCc1ccccc1`
result: 103

query: Short answer please: inhibition at 12.5 µM, T. cruzi Tulahuen C4 intracellular amastigotes, entry C/C1=C\[C@H](C)CC[C@@H](O)/C(C)=C/[C@H](C)C[C@@H](C)CC[C@@H]([C@@H](C)C(=O)O)OC(=O)[C@@H](C)C1 [Strasseriolide B, strasseriolide B]
result: 113

query: Missing value: inhibition at 12.5 µM, T. cruzi Tulahuen C4 intracellular amastigotes, entry C/C1=C\[C@H](C)C(=O)C[C@@H](O)/C(C)=C/[C@H](C)C[C@@H](C)CC[C@@H]([C@@H](C)C(=O)O)OC(=O)[C@@H](C)C1 [Strasseriolide C, strasseriolide C] . Fill in?
result: 110

query: Give the reported inhibition at 12.5 µM for C/C1=C\[C@H](C)CCC(=O)/C(C)=C/[C@H](C)C[C@@H](C)CC[C@@H]([C@@H](C)C(=O)O)OC(=O)[C@@H](C)C1 [Strasseriolide A, strasseriolide A] (system: T. cruzi Tulahuen C4 intracellular amastigotes).
result: 11.4
